Consider the following binders; for each one, report its Anti-CD28 Fab (SEQ ID NOs: 202, 203) signal.
molecular target: T1, anti-CD28 Fab (SEQ ID NOs: 202, 203); experiment: phage ELISA on captured Fab;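 further: ELISA with clonal phage supernatants added to wells preincubated with CD28 antigen or with blocking buffer only, bound phage detected by HRP-conjugated anti-M13 antibody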
T1 construct: biotinylated and captured on neutravidin coated plates in the phage ELISA
T1 sequence (VH, as listed by the source, chain 1 of 2): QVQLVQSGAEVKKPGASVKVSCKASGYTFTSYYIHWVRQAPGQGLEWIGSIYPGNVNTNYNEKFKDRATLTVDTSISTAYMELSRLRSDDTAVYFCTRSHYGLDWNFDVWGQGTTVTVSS
T1 sequence (VL, as listed by the source, chain 2 of 2): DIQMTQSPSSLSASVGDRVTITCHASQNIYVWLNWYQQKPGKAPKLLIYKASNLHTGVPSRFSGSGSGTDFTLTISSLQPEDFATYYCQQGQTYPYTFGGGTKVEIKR
Respond with the number and no other words.

Tell me its Anti-CD28 Fab (SEQ ID NOs: 202, 203) signal given YCEGHLEQYMQKCL (on phage, pIII fusion) [Phage-492] as the entry. 1.63

Tell me its Anti-CD28 Fab (SEQ ID NOs: 202, 203) signal given YCDGHLPEYITKCL (on phage, pIII fusion) [Phage-573] as the entry. 1.49

Tell me its Anti-CD28 Fab (SEQ ID NOs: 202, 203) signal given YCEGHLPLYMDKCL (on phage, pIII fusion) [Phage-512] as the entry. 1.6
